# System: SNB-75 CNS
# Measurement Protocol: NCI tumour cell line growth inhibition, 48 h
Recorded Endpoint: TGI

{"Molecule": "O=C1NC2C(CCO)CC=C[C@H]2c2cc3c(cc21)OCO3 (stereo partly drawn)", "Recorded Endpoint": "TGI", "Readout Value": "> 100 µM"}

Enquiry: So what's the measured TGI for this one? `CCOC(=O)c1c(CN2CCCC2)n(-c2ccccc2)c2cc(Br)c(OC)cc12`
Return: 62.5 µM

Enquiry: So what's the measured TGI for this one? `Cn1nc2ccccc2cc1=O`
Return: > 100 µM

Enquiry: So what's the measured TGI for this one? `O=C(NNC(=O)c1nsc2ccccc12)c1ccc(Cl)cc1`
Return: 15.6 µM

Enquiry: So what's the measured TGI for this one? CCOC(=O)NC1CC2CCC1(OC)C=C2C (stereo not drawn)
Return: > 100 µM

Enquiry: So what's the measured TGI for this one? CCOP(=O)(OCC)C(Nc1ccc(C(=O)O)cc1)c1ccc(C(Nc2ccc(C(=O)O)cc2)P(=O)(OCC)OCC)cc1 (stereo not drawn)
Return: > 100 µM

Enquiry: So what's the measured TGI for this one? `C[CH2][Sn]([CH2]C)([O]C(=O)c1ccc(F)cc1)[O][Sn]([CH2]C)([CH2]C)[O]C(=O)c1ccc(F)cc1`
Return: > 100 µM

Enquiry: So what's the measured TGI for this one? COc1ccc(C2S/C(=C\c3ccccc3)C(=O)N2NC(=O)Cc2ccccc2)cc1 (stereo not drawn)
Return: > 100 µM

Enquiry: So what's the measured TGI for this one? `O=C(NCCCCCCNC(=O)OCc1ccc2c(Cl)cc(Cl)c(O)c2n1)OCc1ccc2c(Cl)cc(Cl)c(O)c2n1`
Return: 2.08 µM

Enquiry: So what's the measured TGI for this one? `O=S(=O)(Nc1ccccn1)c1ccc(N=Nc2ccc(O)c3ncccc23)cc1`
Return: 3.33 µM

Enquiry: So what's the measured TGI for this one? `Cn1c(=O)n2n(c1=O)[C@@H](c1ccccc1)[C@H]2c1ccccc1`
Return: > 100 µM

Enquiry: So what's the measured TGI for this one? `C[C@]12CCC(=O)C=C1CC[C@@H]1[C@@H]2[C@@H](O)C[C@@]2(C)[C@H]1CC[C@]2(O)C(=O)COC(=O)C1CCCC1`
Return: > 100 µM

Enquiry: So what's the measured TGI for this one? `Cc1ccc(S(=O)(=O)OC[C@@]2(C)CC[C@]3(C)CC[C@]4(C)C(=CC[C@@H]5[C@@]6(C)CCCNC(C)(C)[C@@H]6CC[C@]54C)[C@@H]3C2)cc1`
Return: 3.1 µM

----------
# Tested on: MALME-3M melanoma
# Measurement Protocol: NCI tumour cell line growth inhibition, 48 h
Output 1 (yes) for TGI not less than 7 µM; output 0 (no) otherwise.

Solved cases below.
{"Compound": "COC1=C(OC)[C@]2(OC)c3c(O)c(OC)c4c(c3O[C@@]23O[C@@H](c2ccccc2)CC=C3C1=O)[C@@H](O)C[C@H](c1ccccc1)O4", "Label Class": "0 (no)"}
{"Compound": "N#CCc1nc(-c2cc3c(ccc4ccccc43)oc2=O)cs1", "Label Class": "1 (yes)"}
{"Compound": "O=C(Cc1ccccc1)NS(=O)(=O)c1ccccc1", "Label Class": "1 (yes)"}
{"Compound": "C=CCC1C(=O)Nc2cccc3ncn(c23)C1=O (centres undefined)", "Label Class": "1 (yes)"}
{"Compound": "C=CCSSc1ncnc2c1ncn2C1OC(CO)C(O)C1O (centres undefined)", "Label Class": "1 (yes)"}
{"Compound": "O=C(COc1ccc(Cl)cc1Cl)N/N=C/C=C/c1ccc([N+](=O)[O-])o1", "Label Class": "0 (no)"}
{"Compound": "Nc1ccc(-c2ccc(-c3nc4cc(Cl)c(Cl)cc4[nH]3)cc2)cc1", "Label Class": "1 (yes)"}
{"Compound": "COc1ccc(C2C(C=O)C(N3CCN(C)CC3)=Nc3nc4ccccc4n32)cc1 (centres undefined)", "Label Class": "1 (yes)"}

Enquiry: Check this compound for TGI at or above 7 µM: Cc1ccc(C2SCC(=O)N2NC(=O)c2ccncc2)s1 (centres undefined)
Return: 1 (yes)

Enquiry: Check this compound for TGI at or above 7 µM: `CCN1CCN(c2ccc(Nc3ncc4ccc5ncn(C(C)C)c5c4n3)nc2)CC1`
Return: 0 (no)

Enquiry: Check this compound for TGI at or above 7 µM: Cc1cc(O)c2c(c1)CC(O)C1=C2C(=O)c2c(O)ccc(OC3CC(O)C(OC4CC(OC5CCC(O)C(C)O5)C(O)C(C)O4)C(C)O3)c2C1=O (centres undefined)
Return: 0 (no)

Enquiry: Check this compound for TGI at or above 7 µM: COc1ccc2c(c1)OC(c1ccccc1O)CC2=O (centres undefined)
Return: 1 (yes)

Enquiry: Check this compound for TGI at or above 7 µM: `COC(=O)[C@H](COC(=O)/C=C/c1ccc(OC(C)=O)c(OC(C)=O)c1)NC(=O)/C=C/c1ccc(OC(C)=O)c(OC(C)=O)c1`
Return: 1 (yes)

Enquiry: Check this compound for TGI at or above 7 µM: `CCN(CC)CC[n+]1cc2cc(OC)c(OC)cc2c2ccc3cc4c(cc3c21)OCO4`
Return: 0 (no)

Every entry's value here was drawn from PubChem BioAssay (NCI).
